Assignment: determine reported pIC50 for the given compounds.
ASSAY: Inhibition of Mycobacterium tuberculosis Uracil-DNA glycosylase using 5'-FAM-CUUUUUGAGCTTTTGCTCAAAAAG-3'-BHQ-1 as substrate measured every 2 mins for 40 mins by fluorescence based analysis
// pIC50 here means minus log10 of the molar concentration (mol/L)

What pIC50 value was documented for this compound, "COC(=O)CCCOc1ccccc1C=C1C(=O)NC(=O)NC1=O" ? 3.00

What pIC50 value was documented for this compound, "Oc1nc(O)c2nc(O)[nH]c2n1" ? 1.79

What pIC50 value was documented for this compound, "O=C1CSC(=O)N1" ? 1.76

What pIC50 value was documented for this compound, "COC(=O)COc1ccc(C=C2C(=O)NC(=O)NC2=O)cc1" ? 3.48

* * *

ASSAY: Inhibition of Mycobacterium tuberculosis Uracil-DNA glycosylase using 5'-FAM-CUUUUUGAGCTTTTGCTCAAAAAG-3'-BHQ-1 as substrate measured every 2 mins for 40 mins by fluorescence based analysis
PROPERTY MEASURED: pIC50
// pIC50 here means minus log10 of the molar concentration (mol/L)

What pIC50 value was documented for this molecule, "O=C(O)c1[nH]c(=O)[nH]c(=O)c1F" ? 2.53

What pIC50 value was documented for this molecule, "COC(=O)CCCOc1cccc(C=C2C(=O)NC(=O)NC2=O)c1" ? 2.38

What pIC50 value was documented for this molecule, O=C(O)c1cc(=O)[nH]c(=O)[nH]1 [OROTIC ACID] ? 1.85

What pIC50 value was documented for this molecule, "COC(=O)c1ccccc1OCCOc1ccccc1C=C1C(=O)NC(=O)NC1=O" ? 2.97

What pIC50 value was documented for this molecule, "O=C1NC(=O)C(=Cc2ccc(OCCOc3ccccc3C(=O)O)cc2)C(=O)N1" ? 2.96

What pIC50 value was documented for this molecule, O=c1cc[nH]c(=O)[nH]1 [URACIL] ? 2.69

What pIC50 value was documented for this molecule, "COc1cc2nc(O)nc(O)c2cc1OC" ? 3.03

What pIC50 value was documented for this molecule, "Oc1ncc(O)c(O)n1" ? 2.55

What pIC50 value was documented for this molecule, "O=Cc1cc(=O)[nH]c(=O)[nH]1" ? 2.19

What pIC50 value was documented for this molecule, "COC(=O)COc1ccccc1C=C1C(=O)NC(=O)NC1=O" ? 2.26

What pIC50 value was documented for this molecule, "O=C(O)c1c[nH]c(=O)[nH]c1=O" ? 1.80

What pIC50 value was documented for this molecule, O=C1CC(=O)NC(=O)N1 [BARBITURIC ACID] ? 2.14

What pIC50 value was documented for this molecule, "COC(=O)COc1cccc(C=C2C(=O)NC(=O)NC2=O)c1" ? 1.98
